Please respond with reported pIC50 for every item in the list.
Tested on: RKO
Test: MTT assay, RKO cells
Format: cell-based
Conditions: Homo sapiens, 72 h
Protocol: Human colorectal adenocarcinoma cells HT-29, HCT-116, DLD-1, LS-174T, RKO, and LoVo, as well as mouse colorectal carcinoma cell CT-26, were purchased from the Chinese Academy of Sciences Shanghai Cell Bank. Cells stored at −80 °C were rapidly thawed in a 37 °C water bath, centrifuged to collect, and resuspended in a complete medium for culturing in a 37 °C, 5% CO2 incubator. Then, they were rinsed twice with PBS, digested with trypsin, and resuspended in a complete medium after detachment. […]
Numbers only, as −log10 of the molar value.

Below are worked cases with known answers.
COc1ccc([C@]2(O)c3c(ccc4c3O[C@](C)(CCC=C(C)C)C=C4)N(Cc3cccc(Br)c3)C(=O)[C@H]2OC)cc1	4.32
CO[C@@H]1C(=O)Nc2ccc3c(c2[C@@]1(O)c1cccc(Br)c1)O[C@@](C)(CCC=C(C)C)C=C3	4.43
COc1ccc([C@]2(O)c3c(ccc4c3O[C@@](C)(CCC=C(C)C)C=C4)N(Cc3cccc(Br)c3)C(=O)[C@H]2OC)cc1	4.66

Now for the compound whose pIC50 we want.
Request: Please give the measured pIC50 for this compound: "CO[C@@H]1C(=O)Nc2ccc3c(c2[C@@]1(O)c1cccc(Br)c1)O[C@](C)(CCC=C(C)C)C=C3"
Result: 4.55

====

Record form. Attribute: pIC50. Fill in for each entry.
Test system: CT-26
Assay: MTT assay, CT-26 cells
Type: cell-based
Conditions: Mus musculus, CT26, 72 h
Description: Human colorectal adenocarcinoma cells HT-29, HCT-116, DLD-1, LS-174T, RKO, and LoVo, as well as mouse colorectal carcinoma cell CT-26, were purchased from the Chinese Academy of Sciences Shanghai Cell Bank. Cells stored at −80 °C were rapidly thawed in a 37 °C water bath, centrifuged to collect, and resuspended in a complete medium for culturing in a 37 °C, 5% CO2 incubator. Then, they were rinsed twice with PBS, digested with trypsin, and resuspended in a complete medium after detachment. […]
pIC50: −log10 of the molar value.

Can you give me pIC50 for all of these, one by one?
1. CO[C@@H]1C(=O)Nc2ccc3c(c2[C@@]1(O)c1cccc(Br)c1)O[C@](C)(CCC=C(C)C)C=C3
2. COc1ccc([C@]2(O)c3c(ccc4c3O[C@](C)(CCC=C(C)C)C=C4)N(Cc3cccc(Br)c3)C(=O)[C@H]2OC)cc1
3. CO[C@@H]1C(=O)Nc2ccc3c(c2[C@@]1(O)c1cccc(Br)c1)O[C@@](C)(CCC=C(C)C)C=C3

Result:
< 4.30
< 4.30
4.58

Request: I'd like to know its pIC50. The molecule in question is "COc1ccc([C@]2(O)c3c(ccc4c3O[C@@](C)(CCC=C(C)C)C=C4)N(Cc3cccc(Br)c3)C(=O)[C@H]2OC)cc1"
Result: < 4.30
